Listed next: entries and their corresponding %Inh.
Tested on: ASK1
Construct: gene MAP3K5
Settings: concentration: 1 μM,replicates: in singlicate; n = 1;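 note: KINOMEscan kinase panel screen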

compound: CN(c1cccc(CNc2nc(Nc3ccc4c(c3)CC(=O)N4)ncc2C(F)(F)F)c1)S(C)(=O)=O
%Inh: 0%

compound: COc1cccc(OC)c1C(=O)Nc1cccc(-c2nn3ccccc3c2-c2ccnc(Nc3cccc(F)c3)n2)c1
%Inh: 22%

compound: c1ccc(Oc2ccc(Nc3ccnc4ccc(-c5ccccn5)cc34)cc2)cc1
%Inh: 4%

compound: CCOC(=O)N1CCC(n2cnc(-c3ccc(F)cc3)c2-c2ccnc(N)n2)CC1
%Inh: 0%

compound: Cn1ccc2ncnc(Oc3ccc(NC(=O)Nc4cc(C(C)(C)C)on4)c(Cl)c3)c21
%Inh: 11%

compound: COc1cc2ncn(-c3cc(OCC4CCCCC4)c(C(N)=O)s3)c2cc1OC
%Inh: 14%

compound: CC(=O)Nc1nc2cnc(Nc3cc(NC(=O)c4cccc(CC(C)(C)C#N)c4)ccc3C)nc2s1
%Inh: 7%

compound: COc1cccc(CNC(=O)NC2CCN(c3ccnc(Nc4cc(OC)c(OC)c(OC)c4)n3)C2)c1 (centres unmarked)
%Inh: 7%

* * *

Here, each record is paired with measured %Inh data.
Tested on: EPHB1
Settings: concentration: 1 μM,replicates: in singlicate; n = 1

compound: Cc1nnc(-c2ccc3occ(-c4ccc(S(C)=O)cc4)c3n2)o1 (stereo not drawn)
u: %
%Inh: 0
//
compound: C[C@@H]1CCN(C(=O)N2CCCC2)C[C@@H]1N(C)c1ncnc2[nH]ccc12
u: %
%Inh: 0
//
compound: Cc1cccc2c(-c3ccncc3)c(-c3ccc(F)cc3)nn12.Cl [GW461487]
u: %
%Inh: 5
//
compound: O=C(Nc1n[nH]c2cc(-c3ccco3)ccc12)C1CC1 [SB-737447]
u: %
%Inh: 0
//
compound: Nc1nccc(-c2ccc3c(N)n[nH]c3c2)n1 [GSK1034945]
u: %
%Inh: 30
//
compound: C[C@@H](Oc1cc(-n2cnc3cc(-c4ccncc4)ccc32)sc1C(N)=O)c1ccccc1Cl [GSK479719]
u: %
%Inh: 9
//
compound: C[C@@H](Oc1cc(-n2cnc3cc(-c4cnn(C)c4)ccc32)sc1C(N)=O)c1ccccc1Cl [GSK580432]
u: %
%Inh: 29
//
compound: CCCC(=O)Nc1n[nH]c2ncccc12 [SB-601436]
u: %
%Inh: 0
//
compound: Cc1ccc2c(-c3ccnc(Nc4ccc(C(F)(F)F)cc4)n3)cnn2n1 [GW819776]
u: %
%Inh: 14

* * *

Quick reference: %Inh of the listed items.
Tested on: RPS6KA4(Kin.Dom.1-N-terminal)
Conditions: concentration: 1 μM,replicates: in singlicate; n = 1
metric: %Inh (%)

compound: C[C@@H](Oc1cc(-n2cnc3cc(-c4cnn(C)c4)ccc32)sc1C(N)=O)c1ccccc1Cl
metric: %Inh
recorded-number: 82
//
compound: CCNCC(Cc1ccccc1)NC(=O)c1cc(Br)c(-c2ccnc3[nH]ccc23)s1.Cl.Cl (centres unmarked)
metric: %Inh
recorded-number: 67
//
compound: CCCC(=O)Nc1n[nH]c2ncccc12
metric: %Inh
recorded-number: 3
//
compound: CC(=O)Nc1ccc(-c2cc3ncnc(SCC(=O)O)c3s2)cc1
metric: %Inh
recorded-number: 6
//
compound: COc1cccc(OC)c1C(=O)Nc1cccc(-c2nn3ccccc3c2-c2ccnc(Nc3cccc(F)c3)n2)c1
metric: %Inh
recorded-number: 8

* * *

Tested on: MAP3K1
Conditions: concentration: 1 μM,replicates: in singlicate; n = 1
Measured %Inh of individual entries

molecule: CC(C)c1nc(-c2cccc(NS(=O)(=O)c3ccccc3)c2)c(-c2ccnc(Nc3ccc4c(c3)CN(C)CC4)n2)s1 [GSK1649598]
%Inh / %: 6

molecule: COC(=O)Nc1nc2cc(Oc3ccc(NC(=O)Nc4cc(C(F)(F)F)ccc4Cl)cc3)ccc2[nH]1.Cl [GW697465]
%Inh / %: 14

molecule: FC(F)(F)c1cc(Br)cc(Nc2nccc(-c3cnn4ncccc34)n2)c1 [GW810578]
%Inh / %: 3

molecule: Cn1ccc2ncnc(Oc3ccc(NC(=O)Nc4cc(C(C)(C)C)on4)c(Cl)c3)c21
%Inh / %: 18

molecule: CN1CCN(CCCNc2nccc(-c3c(-c4ccc(F)cc4)nn4cc(C(N)=O)ccc34)n2)CC1 [GW622475]
%Inh / %: 24

molecule: CN1CCN(CCNc2nc3cc(Oc4ccc(NC(=O)Nc5cc(C(F)(F)F)ccc5F)cc4)ccc3[nH]2)CC1.Cl.Cl [GW768504]
%Inh / %: 0

molecule: Cc1cccc2c(-c3ccncc3)c(-c3ccc(F)cc3)nn12.Cl [GW461487]
%Inh / %: 13

molecule: Cn1ccc2ncnc(Oc3ccc(NC(=O)Nc4cccc(C(F)(F)F)c4)c(Cl)c3)c21
%Inh / %: 0

molecule: Cc1cccc(-c2nc(Nc3ccncc3)c3sccc3n2)n1 [GW869641]
%Inh / %: 37

molecule: CCN1CCN(CCCC(=O)Nc2n[nH]c3nc(-c4ccc(O)cc4)c(Br)cc23)CC1 [SB-731579]
%Inh / %: 0

molecule: CS(=O)(=O)Nc1ccc(-c2ccnc3[nH]ccc23)cc1 [GSK993273]
%Inh / %: 18

molecule: Cc1ccc(CC(=O)N2CCc3cc(-c4cn(C)c5ncnc(N)c45)ccc32)cc1 [GSK2634758]
%Inh / %: 10

molecule: CCn1c(-c2nonc2N)nc2cncc(CNC3CCNCC3)c21.Cl [SB-747651]
%Inh / %: 6

molecule: Cn1ccc2ncnc(Oc3ccc(NC(=O)Nc4ccnc(C(F)(F)F)c4)c(Cl)c3)c21
%Inh / %: 0

molecule: CCNCC(Cc1ccccc1)NC(=O)c1cc(Br)c(-c2ccnc3[nH]ccc23)s1.Cl.Cl (centres unmarked) [GSK1383280]
%Inh / %: 12

molecule: Cn1ccc2ncnc(Oc3ccc(NC(=O)Nc4cncc(C(F)(F)F)c4)c(Cl)c3)c21
%Inh / %: 0

molecule: CCn1c(-c2nonc2N)nc2cncc(Br)c21 [SB-738004]
%Inh / %: 10

molecule: COc1cccc(CNC(=O)NC2CCN(c3ccnc(Nc4cc(OC)c(OC)c(OC)c4)n3)C2)c1 (centres unmarked) [GSK1379765]
%Inh / %: 10

molecule: Cn1ccc2ncnc(Oc3ccc(NC(=O)Nc4cccc(C(F)(F)F)c4)c(F)c3)c21
%Inh / %: 0

molecule: CN(c1ccccc1CNc1nc(Nc2ccc3c(c2)CC(=O)N3)ncc1C(F)(F)F)S(C)(=O)=O
%Inh / %: 0

* * *

Test system: TSSK1B
Settings: concentration: 1 μM,replicates: in singlicate; n = 1

compound: CCCC(=O)Nc1n[nH]c2ncccc12
u: %
%Inh: 0
--
compound: C[C@@H]1CNc2c(sc3ccc4nc(-c5ccc(O)cc5)ccc4c23)C(=O)N1
u: %
%Inh: 0
--
compound: COc1cccc(C2=C(Nc3cccc(Cl)c3)C(=O)NC2=O)c1
u: %
%Inh: 16
--
compound: NC(=O)c1ccc(-c2cc3ncnc(SCC(=O)O)c3s2)cc1
u: %
%Inh: 0
--
compound: NC(=O)Nc1sc(-c2ccc(F)cc2)cc1C(N)=O
u: %
%Inh: 0
--
compound: COc1cc2c(Nc3ccc(NC(=O)c4ccccc4)cc3)ncnc2cc1OCCCN1CCOCC1
u: %
%Inh: 0
--
compound: c1ccc(Oc2ccc(Nc3ccnc4ccc(-c5ccccn5)cc34)cc2)cc1
u: %
%Inh: 27
--
compound: CN1CCN(CCNc2nc3cc(Oc4ccc(NC(=O)Nc5cc(C(F)(F)F)ccc5F)cc4)ccc3[nH]2)CC1.Cl.Cl
u: %
%Inh: 8
--
compound: C[C@@H](Oc1cc(-n2cnc3cc(-c4cnn(C)c4)ccc32)sc1C(N)=O)c1ccccc1Cl
u: %
%Inh: 14
--
compound: COc1ccc(Nc2nccc(N3CCC(NC(=O)c4cccc(C#N)c4)C3)n2)cc1 (stereo not drawn)
u: %
%Inh: 0
--
compound: Cl.Nc1n[nH]c2cc(-c3ccccn3)ccc12
u: %
%Inh: 0
--
compound: O=C(Nc1n[nH]c2cc(-c3ccco3)ccc12)C1CC1
u: %
%Inh: 0
--
compound: COc1cccc(OC)c1C(=O)Nc1cccc(-c2nn3ccccc3c2-c2ccnc(Nc3cccc(F)c3)n2)c1
u: %
%Inh: 20
--
compound: CS(=O)(=O)c1cccc(CNc2nc(Nc3ccc4c(c3)[C@@H]3C[C@@H]4CNC3=O)ncc2C(F)(F)F)c1
u: %
%Inh: 0
--
compound: O=C(Nc1ccc(Oc2ccc3nc(NC(=O)C4CC4)cn3n2)c(F)c1)c1cccn(-c2ccccc2)c1=O
u: %
%Inh: 0
--
compound: O=C(NOCC1CC1)c1cc(Br)c(F)c(F)c1Nc1ccc(I)cc1Cl
u: %
%Inh: 0
--
compound: OCCn1cc(-c2cnc3nnn(Cc4ccc5ncccc5c4)c3n2)cn1
u: %
%Inh: 0
--
compound: Cl.c1ccc(Oc2ccc(Nc3ccnc4cc(-c5ccc(CN6CCNCC6)o5)ccc34)cc2)nc1
u: %
%Inh: 0
